- Tested System: HPK1
- Assay Overview: HPK1 Lantha Binding Assay ("Lanth")
- Assay Setup: Table B1-1, read-out: HPK1 Ki (μM) (Lanth)
Sorting guide: entries reporting Ki beneath 0.4 nM go in the Y pile, the rest go in the N pile.

>>> qualitative_label("Cc1cc(-c2ccccc2)ncc1-c1cc2cc(NC(=O)[C@H]3C[C@@H]3CC#N)ncc2c(N)n1")
"N"
>>> qualitative_label("CCc1ccncc1-c1cc2cc(NC(=O)c3ccnn3C)ncc2c(N)n1")
"N"
>>> qualitative_label("CCc1ccncc1-c1cc2cc(Nc3ccn(C)n3)ncc2c(N)n1")
"N"
>>> qualitative_label("Cc1ccncc1-c1cc2cc(NC(=O)C3CC3(F)F)ncc2c(N)n1 (centres unmarked)")
"N"
>>> qualitative_label("Cc1ncncc1-c1cc2cc(NC(=O)[C@@H]3C[C@@H]3F)ncc2c(N)n1")
"N"
>>> qualitative_label("Cn1cc([C@@H]2C[C@H]2C(=O)Nc2cc3cc(-c4cnccc4CCO)nc(N)c3cn2)cn1")
"Y"
>>> qualitative_label("Cn1cc([C@@H]2C[C@H]2C(=O)Nc2cc3cc(-c4c(F)cccc4F)nc(N)c3cn2)cn1 (stereo in doubt)")
"Y"

Data credit: patent US11034692B1
